Recorded IC50 values for a group of molecules are listed next.
Molecular target: Proteasome Macropain subunit MB1 (Homo sapiens, UniProt P28074)
Sequence (P28074 whole entry): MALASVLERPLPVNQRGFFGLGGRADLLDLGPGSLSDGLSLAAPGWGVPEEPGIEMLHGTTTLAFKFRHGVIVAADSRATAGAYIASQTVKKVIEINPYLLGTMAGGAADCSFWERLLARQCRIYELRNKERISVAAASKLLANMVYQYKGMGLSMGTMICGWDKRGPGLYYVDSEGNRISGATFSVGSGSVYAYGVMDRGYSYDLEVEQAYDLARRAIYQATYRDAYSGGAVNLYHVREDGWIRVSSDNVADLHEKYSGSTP
Test: Inhibition of chymotrypsin-like activity of human 20S proteasome using Suc-LLVY-MCA as substrate measured for 1 hr by fluorescence assay

Tested on Proteasome Macropain subunit MB1 (Homo sapiens, UniProt P28074): CCC(=C(c1ccc(OCCN2CCCCCC2)cc1)c1ccc(OCCN2CCCCCC2)cc1)c1cccc(CNC(=O)CN[C@@H](CCCNC(=N)N)C(=O)N[C@@H](CCCNC(=N)N)C(=O)N[C@@H](CCCNC(=N)N)C(=O)N[C@@H](CCCNC(=N)N)C(=O)NC(C)=O)c1 . Observed IC50: > 8 µM

Considering CC[C@]1(O)C[C@@H]2CN(CCc3c([nH]c4ccccc34)[C@@](C(=O)OC)(c3cc4c(cc3OC)N(C)[C@H]3[C@@](O)(C(=O)OC)[C@H](OC(C)=O)[C@]5(CC)C=CCN6CC[C@]43[C@@H]65)C2)C1 [VINBLASTINE] , its IC50 with Proteasome Macropain subunit MB1 (Homo sapiens, UniProt P28074) was recorded as 4.58 µM

For the molecule CCC(=C(c1ccc(OCCN2CCCCCC2)cc1)c1ccc(OCCN2CCCCCC2)cc1)c1cccc(C(=O)NCC(=O)N[C@@H](CCCNC(=N)N)C(=O)N[C@@H](CCCNC(=N)N)C(=O)N[C@@H](CCCNC(=N)N)C(=O)N[C@@H](CCCNC(=N)N)C(=O)N[C@@H](CCCNC(=N)N)C(=O)N[C@@H](CCCNC(=N)N)C(=O)N[C@@H](CCCNC(=N)N)C(=O)N[C@@H](CCCNC(=N)N)C(N)=O)c1 , the measured IC50 on Proteasome Macropain subunit MB1 (Homo sapiens, UniProt P28074) was > 50 µM
